I'd appreciate it if you could supply thermal shift delta Tm values for the items below.
- Test system: LOC_OS01G02750-cb003
- Test name: thermal shift delta Tm vs DMSO control; higher = stronger stabilization (binding);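 also: purified Escherichia coli-expressed rice kinase domain construct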
- Settings: 12.5 µM; protein concentration 2 µM
Counter-ions that a name gives are not always drawn.
Value expressed in °C; do not type the unit.

Memo: CCCCCCCCc1ccc(CCC(N)(CO)CO)cc1 [Fingolimod (FTY720) HCl] , reported thermal shift delta Tm: 0.17

Memo: COc1cc2ncnc(Nc3ccc(O)c(Br)c3)c2cc1OC , reported thermal shift delta Tm: -0.02

Memo: COc1cc(Nc2ncc(F)c(Nc3ccc4c(n3)N(COP(=O)(O)O)C(=O)C(C)(C)O4)n2)cc(OC)c1OC [Fostamatinib (R788)] , reported thermal shift delta Tm: -0.16

Memo: CN1CCCN(C(=O)c2cccc(-c3ccc(/C=C4/C(=O)Nc5ccc(Cl)cc54)o3)c2)CC1 , reported thermal shift delta Tm: 1.47

Memo: C[C@@H]1COCCN1c1cc(=O)n2c(n1)N(Cc1cncc(Cl)c1)[C@H](C(F)(F)F)CC2 , reported thermal shift delta Tm: 1.55

Memo: CCn1c(=O)c(-c2cc[nH]n2)cc2c(C)nc(N)nc21 , reported thermal shift delta Tm: 1.06

---

- System: LOC_OS04G57630-cb004
- Test name: thermal shift delta Tm vs DMSO control; higher = stronger stabilization (binding)
- Settings: 12.5 µM; protein concentration 2 µM
// map thermal shift delta Tm to label using group A (below 0.2 °C), group B (0.2 °C to below 1 °C), group C (1 °C or more)

Inquiry: Which category does the recorded thermal shift delta Tm put Cc1cc([C@@H](C)Nc2ccccc2C(=O)O)c2nc(N3CCOCC3)cc(=O)n2c1 in?
Reply text: group B

Inquiry: Which category does the recorded thermal shift delta Tm put CCOc1cc(N2CCC(O)CC2)ccc1Nc1ncc2c(n1)N(C)c1ccccc1C(=O)N2C in?
Reply text: group A

Inquiry: Which category does the recorded thermal shift delta Tm put CC1Oc2cc(cnc2N)-c2c(nn(C)c2C#N)CN(C)C(=O)c2ccc(F)cc21 (stereo not drawn) in?
Reply text: group B

Inquiry: Which category does the recorded thermal shift delta Tm put COc1ccc(-c2ccc3ncc4c(c3c2)n(-c2ccc(N3CCNCC3)c(C(F)(F)F)c2)c(=O)n4C)cn1 in?
Reply text: group B

Inquiry: Which category does the recorded thermal shift delta Tm put Cc1cnc(Nc2ccc(OCCN3CCCC3)cc2)nc1Nc1cccc(S(=O)(=O)NC(C)(C)C)c1 in?
Reply text: group C

Inquiry: Which category does the recorded thermal shift delta Tm put CCc1ccc(/C=C2/SC(=S)NC2=O)cc1 in?
Reply text: group B

Inquiry: Which category does the recorded thermal shift delta Tm put COc1ccc(CCNCc2ccc(OCc3ccc(Cl)nc3)c(OC)c2)cc1OC in?
Reply text: group B

Inquiry: Which category does the recorded thermal shift delta Tm put CCc1nc(C(N)=O)c(Nc2ccc(N3CCC(N4CCN(C)CC4)CC3)c(OC)c2)nc1NC1CCOCC1 in?
Reply text: group C

Inquiry: Which category does the recorded thermal shift delta Tm put C[S+]([O-])c1ccc(-c2nc(-c3ccc(F)cc3)c(-c3ccncc3)[nH]2)cc1 (stereo not drawn) in?
Reply text: group B

Inquiry: Which category does the recorded thermal shift delta Tm put CNc1nc(Nc2cnn([C@H]3CCN(C4COC4)C[C@@H]3F)c2Cl)ncc1C(F)(F)F in?
Reply text: group C

Inquiry: Which category does the recorded thermal shift delta Tm put CC(C)S(=O)(=O)c1ccc2nccc(Nc3ccc4scnc4c3)c2c1 in?
Reply text: group C

Inquiry: Which category does the recorded thermal shift delta Tm put COc1ccc([C@@H]2OC[C@H]3[C@@H]2CO[C@@H]3c2ccc(O[C@@H]3O[C@H](CO)[C@@H](O)[C@H](O)[C@H]3O)c(OC)c2)cc1OC in?
Reply text: group A

Inquiry: Which category does the recorded thermal shift delta Tm put CCn1c(=O)c(-c2ccc(-c3cncs3)cc2Cl)cc2cnc(Nc3ccc(N4CCN(C)CC4)cc3)nc21 in?
Reply text: group B

Inquiry: Which category does the recorded thermal shift delta Tm put C=CCc1ccc(O)c(-c2ccc(O)c(CC=C)c2)c1 in?
Reply text: group B

Inquiry: Which category does the recorded thermal shift delta Tm put N#CCNC(=O)c1ccc(-c2ccnc(Nc3ccc(N4CCOCC4)cc3)n2)cc1 in?
Reply text: group C

Inquiry: Which category does the recorded thermal shift delta Tm put CC[C@H](CO)Nc1nc(NCc2ccccc2)c2ncn(C(C)C)c2n1 [Roscovitine (Seliciclib,CYC202)] in?
Reply text: group A

Inquiry: Which category does the recorded thermal shift delta Tm put Cc1cc(Nc2cc(N)ncn2)c(=O)n2c1C(=O)NC21CCCCC1 in?
Reply text: group B
